Test system: Rattus norvegicus
Assay: Inhibition of the 6-OHDA-induced Hypokinesia in rat, at 50 mg/Kg sc, expressed as cumulative ambulation score; inactive
Type: functional, organism-based
Activity calls are given as the source filed them. No cut-off for these calls is given here.
recorded-endpoint: Score

// worked examples, Score included
CC(=O)NCCN1CCN(c2cccccc2=O)CC1 ... inactive
CC(C)(C)N1CCN(c2cccccc2=O)CC1 ... inactive
NC(=O)CN1CCN(c2cccccc2=O)CC1 ... inactive
CC1CCN(c2cccccc2=O)CC1 ... inactive

Note: attention shifts to another entry.
Request: Hello, please tell me recorded Score for this one: O=C1CCCCCC1N1CCN(CCO)CC1 (stereo not given)
Result: inactive
